Provide the recorded Absorbance Max for the entries that follow.
# method: UV/VIS absorption spectra
# Type: physicochemical
# measurement-parameters: 10 μM compound in 50 mM potassium phosphate buffer (pH 7.0)
One number for each entry, in nm.

- smiles-str: "CCN(CCC[N+](C)(C)Cc1ccccc1)C1=C/C(=C/c2sc3ccccc3[n+]2C)c2ccc(OC)cc2N1c1ccccc1.[Br-].[I-]"
  measured-attribute: "Absorbance Max"
  unit-tag: "nm"
  observed-measurement: 490
- smiles-str: "CCN(CCC[N+](C)(C)CCO)C1=C/C(=C/c2sc3ccccc3[n+]2C)c2ccc(OC)cc2N1c1ccccc1"
  measured-attribute: "Absorbance Max"
  unit-tag: "nm"
  observed-measurement: 490

Here are 5 molecules. What values of Absorbance Max were reported for them?
1. CCN(CCC[N+](C)(C)C)C1=CC(=Cc2sc3ccccc3[n+]2C)c2ccc(OC)cc2N1c1ccccc1.[I-].[I-]
2. CCN(CCN(C)C)C1=C/C(=C/c2sc3ccccc3[n+]2C)c2ccccc2N1c1ccccc1.[Cl-]
3. CCCCN(CCC[N+](C)(C)CCC)C1=CC(=Cc2sc3ccccc3[n+]2C)c2ccc(OC)cc2N1c1ccccc1.[I-].[I-]
4. CN(CCC[N+](C)(C)Cc1ccccc1)C1=C/C(=C/c2sc3ccccc3[n+]2C)c2ccccc2N1c1ccccc1.[I-].[I-]
5. CCN(CC[N+](C)(C)CC)C1=C/C(=C/c2sc3ccccc3[n+]2C)c2ccccc2N1c1ccccc1.[Cl-].[I-]

1. 490
2. 504
3. 489
4. 498
5. 506
